Hello, the source for this data is ChEMBL document CHEMBL3351243, in case you need it.

target system: Polyamine deacetylase HDAC10 (Homo sapiens, UniProt Q969S8)
Sequence (Q969S8 whole entry): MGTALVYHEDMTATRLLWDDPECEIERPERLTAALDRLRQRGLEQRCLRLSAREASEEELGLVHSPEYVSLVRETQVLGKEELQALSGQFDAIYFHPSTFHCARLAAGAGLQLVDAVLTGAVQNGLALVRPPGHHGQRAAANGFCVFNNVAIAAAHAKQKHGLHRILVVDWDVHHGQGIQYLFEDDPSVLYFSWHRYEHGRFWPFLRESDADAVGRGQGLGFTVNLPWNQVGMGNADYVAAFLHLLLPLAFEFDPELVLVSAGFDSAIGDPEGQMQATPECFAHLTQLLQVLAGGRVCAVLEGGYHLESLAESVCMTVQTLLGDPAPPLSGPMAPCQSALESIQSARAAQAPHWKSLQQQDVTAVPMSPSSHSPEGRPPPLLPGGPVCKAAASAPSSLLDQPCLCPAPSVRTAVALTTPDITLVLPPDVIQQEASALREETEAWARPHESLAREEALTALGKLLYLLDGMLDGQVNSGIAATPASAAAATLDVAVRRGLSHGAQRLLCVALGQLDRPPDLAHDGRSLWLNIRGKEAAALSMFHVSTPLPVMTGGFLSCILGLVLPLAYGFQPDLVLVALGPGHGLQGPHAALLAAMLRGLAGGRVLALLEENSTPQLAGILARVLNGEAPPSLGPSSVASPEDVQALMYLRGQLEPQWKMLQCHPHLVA
readout type: IC50 (µM)
The reply should contain only the number, in µM.

IC50 reading for "COc1ccc2cc(C(=O)/C=C/C=C/c3ccc(OC)c(OC)c3)c(=O)oc2c1" : 85

* * *

target system: Histone deacetylase 2 (Homo sapiens)
Sequence (Q92769 whole entry): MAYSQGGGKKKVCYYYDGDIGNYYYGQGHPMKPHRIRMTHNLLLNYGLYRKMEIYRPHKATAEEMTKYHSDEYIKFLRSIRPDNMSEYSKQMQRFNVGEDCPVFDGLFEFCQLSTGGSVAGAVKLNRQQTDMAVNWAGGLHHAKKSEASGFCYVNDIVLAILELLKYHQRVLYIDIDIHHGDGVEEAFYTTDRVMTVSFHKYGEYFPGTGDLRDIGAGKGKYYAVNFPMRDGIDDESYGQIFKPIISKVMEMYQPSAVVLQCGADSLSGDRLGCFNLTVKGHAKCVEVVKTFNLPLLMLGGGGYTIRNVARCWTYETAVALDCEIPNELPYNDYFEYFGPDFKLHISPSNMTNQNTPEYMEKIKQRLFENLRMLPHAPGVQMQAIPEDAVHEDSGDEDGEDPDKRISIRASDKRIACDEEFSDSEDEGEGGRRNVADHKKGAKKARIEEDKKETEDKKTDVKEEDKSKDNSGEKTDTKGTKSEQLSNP
readout type: pIC50
# pIC50: negative log10 of molar concentration; output just the value

Per the record, "COc1ccc2cc(C(=O)/C=C/C=C/c3ccc(OC)c(OC)c3)c(=O)oc2c1" has pIC50 of 4.48
